# target-under-test: Tau40 P301L protein (human)
# assay-name: cell-based or functional assay
Square brackets hold non-standard residues; d marks the D form. Ends that are not written are not given here.
The label Satisfied is reserved for IC50, Tau40 assay (ThT) strictly under 1000 nM; Not satisfied covers values equal to or above it.

[dW][dR][dL][dK][dV][dR][dW][dL] [wrlkvrwl (PEPTIDE ID NO: 197)] | Satisfied
[dR][dL][dK][dV][dR][dW][dW] [rlkvrww (PEPTIDE ID NO: 298)] | Not satisfied
[dL][dK][dI][dR][dF][dH][dY] [lkirfhy (PEPTIDE ID NO: 211)] | Satisfied
[dK][dV][dR][dW][dW][dL][dR][dW] [kvrwwlrw (PEPTIDE ID NO: 201)] | Satisfied
[dF][dK][dL][dK][dL][dR][dW][dF] [fklklrwf (PEPTIDE ID NO: 57)] | Satisfied
[dV][dR][dW][dW][dK][dL][dR][dW] [vrwwklrw (PEPTIDE ID NO: 196)] | Satisfied
[dW][dR][dL][dK][dF][dR][dW] [wrlkfrw (PEPTIDE ID NO: 263)] | Not satisfied
[dW][dR][dL][dN][dV][dR][dW] [wrlnvrw (PEPTIDE ID NO: 306)] | Not satisfied

// query State whether 1000 nM exceeds IC50, Tau40 assay (ThT) recorded for [dW][dR][dL][dK][dV][dR][dA] [wrlkvra (PEPTIDE ID NO: 323)] .
// result Not satisfied

// query Regarding [dW][dM][dL][dR][dI][dH][dW] [wmlrihw (PEPTIDE ID NO: 304)] , kindly confirm whether its IC50, Tau40 assay (ThT) is beneath 1000 nM.
// result Not satisfied

// query Input [dW][dR][dF][dK][dV][dR][dW] [wrfkvrw (PEPTIDE ID NO: 226)] ; condition: IC50, Tau40 assay (ThT) strictly below 1000 nM. Does it hold?
// result Satisfied

// query I wonder whether [dW][dA][dL][dK][dV][dR][dW] [walkvrw (PEPTIDE ID NO: 257)] has IC50, Tau40 assay (ThT) below 1000 nM. Can you tell?
// result Not satisfied

// query Field: below-cutoff. Rule: recorded IC50, Tau40 assay (ThT) strictly less than 1000 nM. Subject: [dW][dR][dL][dK][dV][dE][dW][dW] [wrlkveww (PEPTIDE ID NO: 313)]
// result Not satisfied

// query In the record for [dW][dR][dT][dK][dV][dR][dW] [wrtkvrw (PEPTIDE ID NO: 276)] , is IC50, Tau40 assay (ThT) less than 1000 nM?
// result Not satisfied
